Cited source for all entries: ChEMBL document CHEMBL6153135

system: 16HBE14o-; assay: Anti-proliferative activity against human 16-HBE cells assessed as cell inhibition measured after 72 hrs by MTT assay; assay type: functional, cell-based
Documented IC50 across a set of compounds
Report as: number unit

Compound	Measured
COc1cc(F)ccc1-c1cc(Nc2cc(CS(C)(=N)=O)ccn2)ncc1F (configuration not stated)	410 nM

Here is the next item to consider.
**Q:** Given the entry `CC(=O)N1CCC(NC(=O)c2ccc3cc2OCCCCCCOc2cc(ccc2F)-c2nc(ncc2F)N3)CC1` , report its measured IC50.
**A:** 480 nM

---

assay: Solubility of compound in PBS at pH 6.0 incubated for 2 hrs by HPLC analysis; type: physicochemical
Documented solubility at 2 h across a set of molecules
Reply with just the number (in µg/mL).

Some solved entries appear below for comparison.
Molecule	Measured
O=C(NCCN1CCOCC1)c1ccc2cc1OCCCCCCOc1cncc(c1)-c1nc(ncc1F)N2	39
O=C(NC1CCN(C2CCOC2)CC1)c1ccc2cc1OCCCCCCn1cc(cn1)-c1nc(ncc1F)N2 (stereo unspecified)	35
O=C(CN1CCOCC1)NCc1ccc2cc1OCCCCCCOc1cc(ccc1F)-c1nc(ncc1F)N2	20
O=C(NCCN1CCOCC1)c1ccc2cc1OCCCCCCOc1cc(ccc1F)-c1nc(ncc1F)N2	17

**Q:** Given the entry O=C(NC1CCN(C2CCOC2)CC1)c1ccc2cc1OCCCCCCOc1cncc(c1)-c1nc(ncc1F)N2 (stereo unspecified) , report its measured solubility at 2 h.
**A:** 58

**Q:** Given the entry O=C(NC1CCN(C2CCOC2)CC1)c1ccc2cc1OCCCCCCOc1cc(ccc1F)-c1ncnc(n1)N2 (stereo unspecified) , report its measured solubility at 2 h.
**A:** 27

---

assay: AUC (0 to t) in Sprague-Dawley rat at 2 mg/kg, iv; type: ADME, organism-based; conditions: in vivo
Property name: AUC(0-t) (ng·h/mL)
Reply with just the number (in ng·h/mL).

**Q:** Given the entry `CC(=O)N1CCC(NC(=O)c2ccc3cc2OCCCCCCOc2cc(ccc2F)-c2nc(ncc2F)N3)CC1` , report its measured AUC(0-t).
**A:** 2530

---

tested on: NCI-H596; experiment: Anti-proliferative activity against human NCI-H596 cells assessed as cell inhibition measured after 72 hrs by MTT assay; format: functional, cell-based; settings: NCI-H596, 72 h
Property name: pIC50
# pIC50 is unitless: minus log10 of the molar concentration; print number only

Compound	Subject of test	Measured
CC(=O)N1CCC(NC(=O)c2ccc3cc2OCCCCCCOc2cc(ccc2F)-c2nc(ncc2F)N3)CC1	NCI-H596	7.05

Here is the next item to consider.
**Q:** Param readout = pIC50; param system = NCI-H596; param query = COc1cc(F)ccc1-c1cc(Nc2cc(CS(C)(=N)=O)ccn2)ncc1F (configuration not stated) ; response: value
**A:** 7.05

---

assay: Metabolic stability in monkey liver microsomes assessed as clearance measured for 5 to 60 mins by LC-MS/MS analysis; assay type: ADME, Macaca mulatta, Microsome; conditions: rhesus monkey, time 5-60 min, read-out: CLH
Property name: microsomal CLint (µL/min/mg)
Reply with just the number (in µL/min/mg).

**Q:** Given the entry `CC(=O)N1CCC(NC(=O)c2ccc3cc2OCCCCCCOc2cc(ccc2F)-c2nc(ncc2F)N3)CC1` , report its measured microsomal CLint.
**A:** 23.5

---

test: AUC (0 to t) in Sprague-Dawley rat at 20 mg/kg, po; type: ADME, organism-based; conditions: in vivo
Property name: AUC(0-t) (ng·h/mL)
Reply with just the number (in ng·h/mL).

**Q:** Given the entry `CC(=O)N1CCC(NC(=O)c2ccc3cc2OCCCCCCOc2cc(ccc2F)-c2nc(ncc2F)N3)CC1` , report its measured AUC(0-t).
**A:** 3610

---

assay: Metabolic stability in dog liver microsomes assessed as clearance measured for 5 to 60 mins by LC-MS/MS analysis; type: ADME, Canis lupus familiaris, Microsome; settings: time 5-60 min, read-out: CLH
Property name: microsomal CLint (µL/min/mg)
Reply with just the number (in µL/min/mg).

**Q:** Given the entry `CC(=O)N1CCC(NC(=O)c2ccc3cc2OCCCCCCOc2cc(ccc2F)-c2nc(ncc2F)N3)CC1` , report its measured microsomal CLint.
**A:** 18.4

---

tested on: Lung adenocarcinoma organoid; assay: Anti-tumor activity against multidrug-resistant patient (#2422)-derived human Lung adenocarcinoma organoid assessed as inhibition of cell viability measured after 96 hrs; assay type: functional, tissue-based; conditions: Neoplasm
Property name: IC50 (nM)
Reply with just the number (in nM).

**Q:** Given the entry `CC(=O)N1CCC(NC(=O)c2ccc3cc2OCCCCCCOc2cc(ccc2F)-c2nc(ncc2F)N3)CC1` , report its measured IC50.
**A:** 121

---

experiment: Oral bioavailability in BALB/c mouse at 15 mg/kg; type: ADME, organism-based; details: in vivo
Property name: bioavailability (%)
Reply with just the number (in %).

**Q:** Given the entry `CC(=O)N1CCC(NC(=O)c2ccc3cc2OCCCCCCOc2cc(ccc2F)-c2nc(ncc2F)N3)CC1` , report its measured bioavailability.
**A:** 25.8

---

experiment: Anti-proliferative activity against human Osimertinib-resistant HCC827 cells assessed as cell inhibition measured after 72 hrs in presence of 250 nM JQ1 by MTT assay; assay type: functional, cell-based
Property name: IC50
Report as: number unit

**Q:** Given the entry `CC(=O)N1CCC(NC(=O)c2ccc3cc2OCCCCCCOc2cc(ccc2F)-c2nc(ncc2F)N3)CC1` , report its measured IC50.
**A:** 0.0123 µM

---

experiment: Metabolic stability in mouse liver microsomes assessed as clearance measured for 5 to 60 mins by LC-MS/MS analysis; type: ADME, Microsome; conditions: time 5-60 min, read-out: CLH
Property name: microsomal CLint
Report as: number unit

**Q:** Given the entry `CC(=O)N1CCC(NC(=O)c2ccc3cc2OCCCCCCOc2cc(ccc2F)-c2nc(ncc2F)N3)CC1` , report its measured microsomal CLint.
**A:** 21.6 µL/min/mg

---

assay: AUC (0 to infinity) in BALB/c mouse at 2 mg/kg, iv; assay type: ADME, organism-based; details: in vivo
Property name: AUC(0-inf) (ng·h/mL)
Reply with just the number (in ng·h/mL).

**Q:** Given the entry `CC(=O)N1CCC(NC(=O)c2ccc3cc2OCCCCCCOc2cc(ccc2F)-c2nc(ncc2F)N3)CC1` , report its measured AUC(0-inf).
**A:** 396

---

target: CDK9/cyclin T1 (Homo sapiens, UniProt P50750); test: Inhibition of CDK9/cyclin T1 (unknown origin) preincubated for 10 mins followed by substrate/ATP measured after 60 mins by ADP-Glo assay
Sequence (O60563 whole entry): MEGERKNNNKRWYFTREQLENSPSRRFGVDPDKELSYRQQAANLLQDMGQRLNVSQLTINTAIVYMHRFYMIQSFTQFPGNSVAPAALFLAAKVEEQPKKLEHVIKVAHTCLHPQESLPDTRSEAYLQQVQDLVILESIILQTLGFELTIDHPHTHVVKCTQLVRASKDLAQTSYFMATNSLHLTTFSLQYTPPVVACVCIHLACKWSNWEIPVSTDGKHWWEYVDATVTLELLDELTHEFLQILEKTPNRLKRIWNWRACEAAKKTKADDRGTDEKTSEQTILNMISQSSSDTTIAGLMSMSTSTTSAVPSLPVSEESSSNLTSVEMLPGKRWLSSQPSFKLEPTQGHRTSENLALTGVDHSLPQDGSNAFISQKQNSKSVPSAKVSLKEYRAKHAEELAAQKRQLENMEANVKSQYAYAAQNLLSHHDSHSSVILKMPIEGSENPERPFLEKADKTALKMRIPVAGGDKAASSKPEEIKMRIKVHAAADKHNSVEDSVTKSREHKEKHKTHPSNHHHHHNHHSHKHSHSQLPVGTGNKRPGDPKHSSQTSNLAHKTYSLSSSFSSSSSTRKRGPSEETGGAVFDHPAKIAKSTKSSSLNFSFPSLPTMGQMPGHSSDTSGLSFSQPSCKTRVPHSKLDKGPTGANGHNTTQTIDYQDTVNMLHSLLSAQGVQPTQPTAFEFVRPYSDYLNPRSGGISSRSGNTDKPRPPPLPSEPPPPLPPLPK
Sequence (P50750 whole entry): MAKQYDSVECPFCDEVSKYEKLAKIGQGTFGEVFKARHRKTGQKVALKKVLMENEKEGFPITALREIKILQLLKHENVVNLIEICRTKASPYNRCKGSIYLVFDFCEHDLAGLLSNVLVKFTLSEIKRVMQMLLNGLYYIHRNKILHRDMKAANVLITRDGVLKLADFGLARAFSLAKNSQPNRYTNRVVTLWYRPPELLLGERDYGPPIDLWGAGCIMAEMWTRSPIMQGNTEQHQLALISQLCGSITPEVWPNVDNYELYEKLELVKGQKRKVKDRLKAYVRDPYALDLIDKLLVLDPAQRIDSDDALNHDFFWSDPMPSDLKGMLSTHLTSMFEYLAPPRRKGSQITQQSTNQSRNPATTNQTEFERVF
Each record is given MET if its reported IC50 is strictly below 2 nM. Records at or above 2 nM are given NOT MET.

Compound	Subject of test	Assigned label
O=C(NC1CCN(C2CCOC2)CC1)c1ccc2cc1OCCCCCCOc1cncc(c1)-c1nc(ncc1F)N2 (configuration not stated)	CDK9/cyclin T1 (Homo sapiens, UniProt P50750)	MET
O=C(NC1CCN(C2CC2)CC1)c1ccc2cc1OCCCCCCn1cc(cn1)-c1nc(ncc1F)N2	CDK9/cyclin T1 (Homo sapiens, UniProt P50750)	MET
CCN1CCC(NC(=O)c2ccc3cc2OCCCCCCOc2cc(ccc2F)-c2nc(ncc2F)N3)CC1	CDK9/cyclin T1 (Homo sapiens, UniProt P50750)	NOT MET
COC[C@@H](C)NC(=O)c1ccc2cc1OCCCCCCOc1cc(ccc1F)-c1nc(ncc1F)N2	CDK9/cyclin T1 (Homo sapiens, UniProt P50750)	NOT MET
O=C(NC1CCN(C2CCOC2)CC1)c1ccc2cc1OCCCCCCOc1cc(ccc1F)-c1ncnc(n1)N2 (configuration not stated)	CDK9/cyclin T1 (Homo sapiens, UniProt P50750)	NOT MET

**Q:** API: query returns whether the compound falls strictly under 2 nM in IC50. Query: `CN1CCC(CNC(=O)c2ccc3cc2OCCCCCCOc2cc(ccc2F)-c2nc(ncc2F)N3)CC1`
**A:** NOT MET

**Q:** API: query returns whether the compound falls strictly under 2 nM in IC50. Query: `O=C(NCCN1CCCC1)c1ccc2cc1OCCCCCCOc1cc(ccc1F)-c1nc(ncc1F)N2`
**A:** MET

---

experiment: Drug concentration in plasma of BALB-c nude mouse xenografted with human NCI-H1975 cells at 15 mg/kg, iv measured after 30 mins by LC-MS/MS analysis; assay type: ADME, organism-based
Property name: concentration at 0.5 h (ng/mL)
Reply with just the number (in ng/mL).

**Q:** Given the entry `CC(=O)N1CCC(NC(=O)c2ccc3cc2OCCCCCCOc2cc(ccc2F)-c2nc(ncc2F)N3)CC1` , report its measured concentration at 0.5 h.
**A:** 2450
